Below, each of the compounds is paired with its reported MCC at 72 h value.
assay: Cytotoxicity against human HEL cells assessed as morphological alteration after 3 days; format: cell-based

For CCC1(Cc2ccccc2)OS(=O)(=O)C=C1OCc1ccc([N+](=O)[O-])cc1 (racemic) the compound record lists MCC at 72 h as ≥ 80 µM

For CCC1(Cc2ccccc2)OS(=O)(=O)C=C1OCc1ccc(Br)cc1 (racemic) the compound record lists MCC at 72 h as 80 µM

For "Nc1nc2c(ncn2COC(CO)CO)c(=O)[nH]1" the compound record lists MCC at 72 h as > 400 µM

For "O=S1(=O)C=C(OCc2ccccc2)C(Cc2ccccc2)(Cc2ccccc2)O1" the compound record lists MCC at 72 h as 200 µM

For "Nc1nc2c(ncn2COCCO)c(=O)[nH]1" the compound record lists MCC at 72 h as > 200 µM

New cases:
For CCC1(Cc2ccccc2)OS(=O)(=O)C=C1OC (racemic) the compound record lists MCC at 72 h as > 400 µM

---

assay: Cytotoxicity against human HEL cells assessed as reduction of growth after 3 days; assay type: cell-based
Field: label. Allowed values: Condition met (CC50 at 72 h < 100 µM) or Condition not met (CC50 at 72 h >= 100 µM).

Take a look at these entries with their results.
Qu. Find out if reported CC50 at 72 h for Nc1nc2c(ncn2COC(CO)CO)c(=O)[nH]1 [GANCICLOVIR] is less than 100 µM
Ans. Condition not met

Qu. Find out if reported CC50 at 72 h for CCC1(Cc2ccccc2)OS(=O)(=O)C=C1OC(c1ccccc1)c1ccccc1 (racemic) is less than 100 µM
Ans. Condition not met

Qu. Find out if reported CC50 at 72 h for CCC1(Cc2ccccc2)OS(=O)(=O)C=C1OCc1ccc(C)cc1 (racemic) is less than 100 µM
Ans. Condition met

Qu. Find out if reported CC50 at 72 h for CC1(Cc2ccccc2)OS(=O)(=O)C=C1OCc1ccccc1 (racemic) is less than 100 µM
Ans. Condition met

Qu. Find out if reported CC50 at 72 h for CCC1(Cc2ccccc2)OS(=O)(=O)C=C1OCc1ccc(OC)cc1 (racemic) is less than 100 µM
Ans. Condition not met

New cases:
Qu. Find out if reported CC50 at 72 h for CCC1(Cc2ccccc2)OS(=O)(=O)C=C1OCc1ccc(Cl)c(Cl)c1 (racemic) is less than 100 µM
Ans. Condition met

---

system: Human betaherpesvirus 5; assay: Antiviral activity against PMEDAP-resistant HCMV AD169 clone 4 infected in HEL cells assessed as inhibition of virus-induced cytopathicity; assay type: functional, organism-based; settings: Human betaherpesvirus 5, AD169, HEL
Below, each of the compounds is paired with its reported pEC50 value.
Please report pEC50 as the negative decimal logarithm of the molar concentration, giving only the number.

For "Nc1ncnc2c1ncn2C[C@@H](CO)OCP(=O)(O)O" the compound record lists pEC50 as 6.92

For "O=C(O)P(=O)(O)O" the compound record lists pEC50 as 4.20

For "Nc1nc2c(ncn2COC(CO)CO)c(=O)[nH]1" the compound record lists pEC50 as 5.46

For CCC1(Cc2ccccc2)OS(=O)(=O)C=C1OCc1ccc(Cl)cc1 (racemic) the compound record lists pEC50 as 4.92

These data points were gathered from ChEMBL document CHEMBL1152768.
